Molecular target: Nitric oxide synthase, inducible (Homo sapiens, UniProt P35228)
Sequence (P35228 whole entry): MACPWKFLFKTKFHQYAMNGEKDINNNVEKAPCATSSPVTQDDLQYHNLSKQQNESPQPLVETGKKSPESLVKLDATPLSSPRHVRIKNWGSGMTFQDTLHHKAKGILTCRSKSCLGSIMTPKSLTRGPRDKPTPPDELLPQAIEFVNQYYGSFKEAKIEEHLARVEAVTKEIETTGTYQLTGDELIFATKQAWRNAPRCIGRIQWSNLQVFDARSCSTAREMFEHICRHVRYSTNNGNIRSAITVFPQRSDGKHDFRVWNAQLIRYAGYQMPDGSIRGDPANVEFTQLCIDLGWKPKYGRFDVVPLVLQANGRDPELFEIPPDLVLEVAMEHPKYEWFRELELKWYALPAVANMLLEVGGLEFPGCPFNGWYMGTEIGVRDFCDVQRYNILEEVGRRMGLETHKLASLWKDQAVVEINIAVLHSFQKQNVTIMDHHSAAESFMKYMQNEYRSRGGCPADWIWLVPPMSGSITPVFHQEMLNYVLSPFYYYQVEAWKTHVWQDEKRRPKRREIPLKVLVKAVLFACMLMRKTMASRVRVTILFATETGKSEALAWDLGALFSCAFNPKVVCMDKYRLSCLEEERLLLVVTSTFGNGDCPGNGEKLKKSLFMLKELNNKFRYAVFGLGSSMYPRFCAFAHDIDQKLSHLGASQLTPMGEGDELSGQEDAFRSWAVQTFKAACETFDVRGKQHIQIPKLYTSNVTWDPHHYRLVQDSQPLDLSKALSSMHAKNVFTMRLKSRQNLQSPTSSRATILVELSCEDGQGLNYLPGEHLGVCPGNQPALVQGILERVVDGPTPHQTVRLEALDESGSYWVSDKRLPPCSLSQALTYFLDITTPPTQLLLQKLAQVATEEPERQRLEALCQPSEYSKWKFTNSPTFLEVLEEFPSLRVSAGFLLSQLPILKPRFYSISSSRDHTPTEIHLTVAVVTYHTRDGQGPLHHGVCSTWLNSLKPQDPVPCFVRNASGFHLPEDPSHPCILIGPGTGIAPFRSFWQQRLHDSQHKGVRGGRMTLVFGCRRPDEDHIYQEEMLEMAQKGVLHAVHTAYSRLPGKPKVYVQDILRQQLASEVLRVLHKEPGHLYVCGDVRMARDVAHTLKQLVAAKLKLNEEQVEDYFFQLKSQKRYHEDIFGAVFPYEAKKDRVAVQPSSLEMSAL
Assay: Inhibition of N-terminal His-tagged human recombinant iNOS expressed in Escherichia coli assessed as reduction in L-[3H]-citrulline level using L-[3H]-arginine as substrate at 1 mM incubated for 30 mins by liquid scintillation method relative to control
observable: inhibition (%)
Express the result in % but write the number alone.

Reference set, count: 6
{"molecule": "CC(=N)NCCC(=O)c1cc(Cl)ccc1N", "inhibition (%)": 99.1}
{"molecule": "CC(=N)NCCC(O)c1cc(Cl)ccc1N (configuration not stated)", "inhibition (%)": 49.1}
{"molecule": "COc1ccc(N)c(C(O)CCNC(=N)c2ccc(C(F)(F)F)cc2)c1 (configuration not stated)", "inhibition (%)": 99.6}
{"molecule": "N=C(NCCC(=O)c1ccccc1N)c1ccc(Cl)cc1", "inhibition (%)": 33.4}
{"molecule": "COc1ccc(N)c(C(O)CCNC(=N)c2ccc(Cl)cc2)c1 (configuration not stated)", "inhibition (%)": 81}
{"molecule": "CC(=N)NCCC(=O)c1ccccc1N", "inhibition (%)": 22.2}

--- query ---
Item N=C(NCCC(O)c1ccccc1N)c1ccc(Cl)cc1 (configuration not stated) has what recorded inhibition?
73.2
